Here the recorded Kd is given for each entry.
Target: T1, EsCas13d, nuclease-dead (Eubacterium siraeum, UniProt B0MS50, R295A;H300A;R849A;H854A)
T1 sequence: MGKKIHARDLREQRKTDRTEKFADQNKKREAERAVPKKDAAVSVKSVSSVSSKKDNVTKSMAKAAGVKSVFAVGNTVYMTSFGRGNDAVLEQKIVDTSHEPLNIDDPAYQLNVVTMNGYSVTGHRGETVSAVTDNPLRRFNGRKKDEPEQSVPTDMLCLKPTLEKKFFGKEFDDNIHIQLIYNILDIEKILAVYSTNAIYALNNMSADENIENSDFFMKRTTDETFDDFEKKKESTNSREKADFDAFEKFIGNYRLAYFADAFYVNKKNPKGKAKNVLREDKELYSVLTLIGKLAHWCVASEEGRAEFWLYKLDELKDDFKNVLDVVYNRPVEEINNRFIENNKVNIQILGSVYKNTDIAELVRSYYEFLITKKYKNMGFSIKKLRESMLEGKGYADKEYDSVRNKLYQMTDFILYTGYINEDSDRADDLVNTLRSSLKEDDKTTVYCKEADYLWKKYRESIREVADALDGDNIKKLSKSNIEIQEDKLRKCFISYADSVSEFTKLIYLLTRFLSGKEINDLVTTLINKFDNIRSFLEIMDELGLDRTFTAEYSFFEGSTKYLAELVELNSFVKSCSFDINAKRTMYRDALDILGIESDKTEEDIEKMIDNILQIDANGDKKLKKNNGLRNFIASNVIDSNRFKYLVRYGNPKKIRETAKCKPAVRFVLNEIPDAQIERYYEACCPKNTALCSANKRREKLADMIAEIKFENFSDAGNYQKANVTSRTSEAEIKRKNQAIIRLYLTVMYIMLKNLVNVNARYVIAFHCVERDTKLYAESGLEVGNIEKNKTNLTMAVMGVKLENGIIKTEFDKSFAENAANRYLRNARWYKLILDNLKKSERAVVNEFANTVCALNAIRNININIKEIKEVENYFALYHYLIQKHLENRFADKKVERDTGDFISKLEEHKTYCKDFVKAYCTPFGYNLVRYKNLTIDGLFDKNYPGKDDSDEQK
Experiment: crRNA (strand 1, pre-loaded); Mg2+; 40 mM Tris-HCl pH 7.5, 150 mM NaCl, 6 mM MgCl2, 1 mM DTT, 0.1% Tween-20, 0.2 mg/ml BSA; 25 C; 10 min per concentration, then washed
Conditions: tags: His6-TwinStrep-SUMO cleaved; N-terminal SNAP kept (SNAP-Surface 488); label: 3' end held by stalled T7 RNA polymerase
endpoint: Kd (nM)

binder | endpoint | readout number
target 2 MT 5'PFS GCG 3'PFS CAC (mixed) RNA 1: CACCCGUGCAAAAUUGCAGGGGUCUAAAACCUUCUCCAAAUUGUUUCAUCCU RNA 2: GGGAAUGGAUCCACAUCUACGAAUUCGCGAGGAUGAAACAAUUUGGAGAAGCACAGAUCGGAAGAGCACACGU | Kd | 10.4
target 2 MT 5'PFS AAC 3'PFS AAA (mixed) RNA 1: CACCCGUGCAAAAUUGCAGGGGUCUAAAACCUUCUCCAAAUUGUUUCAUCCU RNA 2: GGGAAUGGAUCCACAUCUACGAAUUCAACAGGAUGAAACAAUUUGGAGAAGAAAAGAUCGGAAGAGCACACGU | Kd | 10
